Would you mind telling me the reported IC50 of each entry?
Target: human PD-1 / PD-L1-Ig binding on Jurkat cell line over-expressing human PD-1 (Jurkat-PD-1) (Homo sapiens)
Construct: expressed in transfected cells; host or cells: Jurkat
Assay: Jurkat-PD-1 Cell Binding High-Content Screening Assay (CBA)
Assay type: cell-based
Settings: Jurkat-PD-1 cells, PE-labeled PD-L1-Ig 20 nM final; read-out: Jurkat HPD1_PDL1 IC50
Report only the number, with the unit µM understood.

Given item CC(C)C[C@H]1NC(=O)[C@H](CCCN)NC(=O)[C@H](CCC(=O)O)NC(=O)[C@H](Cc2ccc(-c3ccccc3)cc2)NC(=O)[C@H](C(C)C)NC(=O)[C@H](Cc2c[nH]c3ccccc23)NC(=O)[C@H](CC(=O)O)NC(=O)[C@H](Cc2ccc(OCC(=O)O)cc2)NC(=O)[C@H](CN)NC(=O)CSC[C@@H](C(=O)N[C@@H](C)C(N)=O)NC(=O)[C@H]([C@@H](C)O)NC(=O)[C@H](C(C)C)NC(=O)[C@H](Cc2cccc3ccccc23)NC(=O)[C@H](CCN)NC1=O , the value recorded as its IC50 is 0.0686

Given item Cc1cccc(C[C@@H]2NC(=O)[C@H](CC(=O)O)NC(=O)[C@H](Cc3ccc(C(=O)O)cc3)NC(=O)[C@H](Cc3ccncc3)NC(=O)CSC[C@@H](C(=O)N[C@@H](C)C(N)=O)NC(=O)[C@H]([C@@H](C)O)NC(=O)[C@H](C(C)C)NC(=O)[C@H](CC3CCCCC3)NC(=O)[C@H](CCN)NC(=O)[C@@H](CC(C)C)NC(=O)[C@H](CCCN)NC(=O)[C@H](C(C)(C)C)NC(=O)[C@H](Cc3ccc(-c4ccccc4)cc3)NC(=O)[C@H](C(C)C)NC2=O)c1 , the value recorded as its IC50 is 0.0227

----------
Target: human PD-1 / PD-L1-Ig binding on Jurkat cell line over-expressing human PD-1 (Jurkat-PD-1) (Homo sapiens)
Construct: expressed in transfected cells; host or cells: Jurkat
Assay: Jurkat-PD-1 Cell Binding High-Content Screening Assay (CBA)
Format: cell-based
Conditions: Jurkat-PD-1 cells, PE-labeled PD-L1-Ig 20 nM final; read-out: Jurkat HPD1_PDL1 IC50
pIC50: −log10 of the molar value. Where a SMILES comes first, the peptide text is derived from it. Bridges are numbered along the chain shown (N, C = ends). [ ]: non-standard residue; d: D form. Bip = N[C@@H](Cc1ccc(-c2ccccc2)cc1)C(=O)O; 4Pal = N[C@@H](Cc1ccncc1)C(=O)O; Cha = N[C@@H](CC1CCCCC1)C(=O)O; dOrn = NCCC[C@@H](N)C(=O)O; Orn = NCCC[C@H](N)C(=O)O; Dab = NCC[C@H](N)C(=O)O; Dap = NC[C@H](N)C(=O)O
Decide using pIC50: a value greater than or equal to 8 is yes (1), a smaller one is no (0).

[in] Could you verify whether the entry CC(C)C[C@@H]1NC(=O)[C@H](CCCNC(=N)N)NC(=O)[C@@H](CC(C)C)NC(=O)[C@H](CCN)NC(=O)[C@H](CCCNC(=N)N)NC(=O)[C@H](Cc2ccc(-c3ccccc3)cc2)NC(=O)[C@H](C(C)C)NC(=O)[C@H](Cc2c[nH]c3ccccc23)NC(=O)[C@H](CC(=O)O)NC(=O)[C@H](Cc2ccc(O)cc2)NC(=O)[C@H](CC(N)=O)NC(=O)CSC[C@@H](C(=O)N[C@@H](C)C(N)=O)NC(=O)[C@H]([C@@H](C)O)NC(=O)[C@H](C(C)C)NC1=O [Compound 1011] ({CH2CO}-NYDWV[Bip]R[Dab][dL]RLVTCA-NH2; thioether N-14) shows pIC50 of no less than 8?
[out] no (0)

[in] Could you verify whether the entry CC(C)C[C@@H]1NC(=O)[C@H](Cc2c[nH]c3ccccc23)NC(=O)[C@H](CC(=O)O)NC(=O)[C@H](Cc2ccncc2)NC(=O)[C@H](CN)NC(=O)CSC[C@@H](C(=O)NCC(N)=O)NC(=O)[C@H](CO)NC(=O)[C@H](C(C)C)NC(=O)[C@H](CC2CCCCC2)NC(=O)[C@H](CC(N)=O)NC(=O)[C@@H](CC(C)C)NC(=O)[C@H](CCCN)NC(=O)[C@H](C(C)C)NC(=O)[C@H](Cc2ccc(-c3ccccc3)cc2)NC1=O [Compound 1337] ({CH2CO}-[Dap][4Pal]DWL[Bip]V[Orn][dL]N[Cha]VSCG-NH2; thioether N-14) shows pIC50 of no less than 8?
[out] no (0)

[in] Could you verify whether the entry CC(C)C[C@@H]1NC(=O)[C@H](CCN)NC(=O)[C@@H](CC(C)C)NC(=O)[C@H](CCN)NC(=O)[C@H](C(C)C)NC(=O)[C@H](Cc2ccc(-c3ccccc3)cc2)NC(=O)[C@H](C(C)C)NC(=O)[C@H](Cc2c[nH]c3ccccc23)NC(=O)[C@H](CC(N)=O)NC(=O)[C@H](Cc2ccc(O)cc2)NC(=O)[C@H](CC(N)=O)NC(=O)CSC[C@@H](C(=O)N[C@@H](C)C(N)=O)NC(=O)[C@H](CO)NC(=O)[C@H](C(C)C)NC1=O [Compound 1080] ({CH2CO}-NYNWV[Bip]V[Dab][dL][Dab]LVSCA-NH2; thioether N-14) shows pIC50 of no less than 8?
[out] no (0)

[in] Could you verify whether the entry CC(C)C[C@@H]1NC(=O)[C@H](Cc2c[nH]c3ccccc23)NC(=O)[C@H](CC(=O)O)NC(=O)[C@H](Cc2ccc(O)cc2)NC(=O)[C@H](Cc2ccccc2)NC(=O)CSC[C@@H](C(=O)NCC(N)=O)NC(=O)[C@H](CO)NC(=O)[C@H](C(C)C)NC(=O)[C@H](CC(C)C)NC(=O)[C@H](CC(N)=O)NC(=O)[C@@H](C)NC(=O)[C@H](CCN)NC(=O)[C@H](C(C)C)NC(=O)[C@H](Cc2ccc(-c3ccccc3)cc2)NC1=O [Compound 1102] ({CH2CO}-FYDWL[Bip]V[Dab][dA]NLVSCG-NH2; thioether N-14) shows pIC50 of no less than 8?
[out] no (0)

[in] Could you verify whether the entry CC(C)C[C@H]1NC(=O)[C@H](CCCN)NC(=O)[C@H](CCC(=O)O)NC(=O)[C@H](Cc2ccc(-c3ccccc3)cc2)NC(=O)[C@H](C(C)C)NC(=O)[C@H](Cc2cccc(Cl)c2)NC(=O)[C@H](CC(=O)O)NC(=O)[C@H](Cc2ccc(OCC(=O)O)cc2)NC(=O)[C@H](CN)NC(=O)CSC[C@@H](C(=O)N[C@@H](C)C(N)=O)NC(=O)[C@H]([C@@H](C)O)NC(=O)[C@H](C(C)C)NC(=O)[C@H](CC2CCCCC2)NC(=O)[C@H](CCN)NC1=O [Compound 1495] shows pIC50 of no less than 8?
[out] yes (1)

[in] Could you verify whether the entry CC(C)C[C@@H]1NC(=O)[C@H](CCN)NC(=O)[C@@H](CC(C)C)NC(=O)[C@@H](CCCN)NC(=O)[C@H](C(C)C)NC(=O)[C@H](Cc2ccc(-c3ccccc3)cc2)NC(=O)[C@H](C(C)C)NC(=O)[C@H](Cc2c[nH]c3ccccc23)NC(=O)[C@H](CC(=O)O)NC(=O)[C@H](Cc2ccc(O)cc2)NC(=O)[C@H](CC(N)=O)NC(=O)CSC[C@@H](C(=O)N[C@@H](C)C(N)=O)NC(=O)[C@H]([C@@H](C)O)NC(=O)[C@H](C(C)C)NC1=O [Compound 1027] ({CH2CO}-NYDWV[Bip]V[dOrn][dL][Dab]LVTCA-NH2; thioether N-14) shows pIC50 of no less than 8?
[out] no (0)

----------
Target: human PD-1 / PD-L1-Ig binding on Jurkat cell line over-expressing human PD-1 (Jurkat-PD-1) (Homo sapiens, UniProt Q15116)
Construct: expressed in transfected cells; host or cells: Jurkat
Sequence (Q15116 25-288): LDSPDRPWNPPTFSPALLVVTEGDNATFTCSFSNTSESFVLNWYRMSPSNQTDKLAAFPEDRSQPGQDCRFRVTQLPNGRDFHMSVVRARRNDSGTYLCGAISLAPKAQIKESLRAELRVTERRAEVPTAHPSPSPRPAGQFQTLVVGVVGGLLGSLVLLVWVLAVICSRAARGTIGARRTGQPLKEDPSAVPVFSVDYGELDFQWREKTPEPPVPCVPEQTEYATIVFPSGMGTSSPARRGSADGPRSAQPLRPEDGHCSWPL
Assay: Jurkat-PD-1 Cell Binding High-Content Screening Assay (CBA)
Type: cell-based
Conditions: Jurkat-PD-1 cells, PE-labeled PD-L1-Ig 20 nM final; read-out: Jurkat HPD1_PDL1 IC50
Where a SMILES comes first, the peptide text is derived from it. Bridges are numbered along the chain shown (N, C = ends). [ ]: non-standard residue; d: D form. ξ: configuration not given here. Bip = N[C@@H](Cc1ccc(-c2ccccc2)cc1)C(=O)O; ξW = NC(Cc1c[nH]c2ccccc12)C(=O)O; 4Pal = N[C@@H](Cc1ccncc1)C(=O)O; Cit = NC(=O)NCCC[C@H](N)C(=O)O; Nle = CCCC[C@H](N)C(=O)O; Orn = NCCC[C@H](N)C(=O)O; Dab = NCC[C@H](N)C(=O)O; Dap = NC[C@H](N)C(=O)O
Measure: IC50 (nM)
Report only the number, with the unit nM understood.

Given item CC[C@H](C)[C@@H]1NC(=O)[C@H](Cc2ccc(-c3ccccc3)cc2)NC(=O)[C@H](C(C)C)NC(=O)[C@H](Cc2c[nH]c3ccccc23)NC(=O)[C@H](CC(=O)O)NC(=O)[C@H](Cc2ccc(C(=O)O)cc2)NC(=O)[C@H](Cc2ccc(OCC(=O)O)cc2)NC(=O)CSC[C@@H](C(=O)N[C@@H](C)C(N)=O)NC(=O)[C@H]([C@@H](C)O)NC(=O)[C@H](C(C)C)NC(=O)[C@H](Cc2cccc(F)c2)NC(=O)[C@H](CCN)NC(=O)[C@@H](CC(C)C)NC(=O)[C@H](CCCN)NC1=O , the value recorded as its IC50 is 13.9

Given item CC(C)C[C@@H]1NC(=O)[C@H](CCN)NC(=O)[C@@H](CC(C)C)NC(=O)[C@H](CCCN)NC(=O)[C@H](C(C)C)NC(=O)[C@H](Cc2ccc(-c3ccccc3)cc2)NC(=O)[C@H](C(C)C)NC(=O)[C@H](Cc2c[nH]c3ccccc23)NC(=O)[C@H](CC(N)=O)NC(=O)[C@H](Cc2ccc(O)cc2)NC(=O)[C@H](CC(N)=O)NC(=O)CSC[C@@H](C(=O)NCC(N)=O)NC(=O)[C@H](CO)NC(=O)[C@H](C(C)C)NC1=O [Compound 1081] ({CH2CO}-NYNWV[Bip]V[Orn][dL][Dab]LVSCG-NH2; thioether N-14) , the value recorded as its IC50 is 28.6

Given item CC(C)C[C@@H]1NC(=O)[C@H](CCN)NC(=O)[C@@H](CC(C)C)NC(=O)[C@H](CN)NC(=O)[C@H](CCCNC(N)=O)NC(=O)[C@H](Cc2ccc(-c3ccccc3)cc2)NC(=O)[C@H](C(C)C)NC(=O)[C@H](Cc2c[nH]c3ccccc23)NC(=O)[C@H](CC(=O)O)NC(=O)[C@H](Cc2ccc(O)cc2)NC(=O)[C@H](CC(N)=O)NC(=O)CSC[C@@H](C(=O)N[C@@H](C)C(N)=O)NC(=O)[C@H]([C@@H](C)O)NC(=O)[C@H](C(C)C)NC1=O [Compound 1024] ({CH2CO}-NYDWV[Bip][Cit][Dap][dL][Dab]LVTCA-NH2; thioether N-14) , the value recorded as its IC50 is 37.3

Given item CC(C)C[C@H]1NC(=O)[C@H](CCCN)NC(=O)[C@H](CCCNC(N)=O)NC(=O)[C@H](Cc2ccc(-c3ccccc3)cc2)NC(=O)[C@H](C(C)C)NC(=O)[C@H](Cc2c[nH]c3ccccc23)NC(=O)[C@H](CC(=O)O)NC(=O)[C@H](Cc2ccc(OCC(=O)O)cc2)NC(=O)[C@H](CN)NC(=O)CSC[C@@H](C(=O)N[C@@H](C)C(N)=O)NC(=O)[C@H]([C@@H](C)O)NC(=O)[C@H](C(C)C)NC(=O)[C@H](CC2CC2)NC(=O)[C@H](CCN)NC1=O , the value recorded as its IC50 is 34.5

Given item CC(C)C[C@@H]1NC(=O)[C@H](CCN)NC(=O)[C@@H](CC(C)C)NC(=O)[C@H](CN)NC(=O)[C@H](C(C)C)NC(=O)[C@H](Cc2ccc(-c3ccccc3)cc2)NC(=O)[C@H](C(C)C)NC(=O)[C@H](Cc2c[nH]c3ccccc23)NC(=O)[C@H](CC(=O)O)NC(=O)[C@H](Cc2ccc(O)cc2)NC(=O)[C@H](CC(N)=O)NC(=O)CSC[C@@H](C(=O)N[C@@H](C)C(N)=O)NC(=O)[C@H]([C@@H](C)O)NC(=O)[C@H](C(C)C)NC1=O [Compound 1028] ({CH2CO}-NYDWV[Bip]V[Dap][dL][Dab]LVTCA-NH2; thioether N-14) , the value recorded as its IC50 is 14.3

Given item CCCC[C@@H]1NC(=O)[C@H](CC(N)=O)NC(=O)[C@@H](CC(C)C)NC(=O)[C@H](CN)NC(=O)[C@H](C(C)C)NC(=O)[C@H](Cc2ccc(-c3ccccc3)cc2)NC(=O)[C@H](CC(C)C)NC(=O)[C@H](Cc2c[nH]c3ccccc23)NC(=O)[C@H](CC(=O)O)NC(=O)[C@H](Cc2ccncc2)NC(=O)[C@H](CN)NC(=O)CSC[C@@H](C(=O)NCC(N)=O)NC(=O)[C@H](CO)NC(=O)[C@H](C(C)C)NC1=O [Compound 1400] ({CH2CO}-[Dap][4Pal]DWL[Bip]V[Dap][dL]N[Nle]VSCG-NH2; thioether N-14) , the value recorded as its IC50 is 29.1

Given item CC(C)C[C@H]1NC(=O)[C@H](CCCN)NC(=O)[C@H](C(C)C)NC(=O)[C@H](Cc2ccc(-c3ccccc3)cc2)NC(=O)[C@H](C(C)C)NC(=O)[C@H](Cc2c[nH]c3ccccc23)NC(=O)[C@H](CC(=O)O)NC(=O)[C@H](Cc2ccc(OCC(=O)O)cc2)NC(=O)[C@H](Cc2ccncc2)NC(=O)CSC[C@@H](C(=O)N[C@@H](C)C(N)=O)NC(=O)[C@H]([C@@H](C)O)NC(=O)[C@H](C(C)C)NC(=O)[C@H](CC2CCCCC2)NC(=O)[C@H](Cc2cnc[nH]2)NC1=O , the value recorded as its IC50 is 14.6

Given item CC[C@H](C)[C@@H]1NC(=O)[C@H](Cc2ccc(-c3ccccc3)cc2)NC(=O)[C@H](CC(C)C)NC(=O)C(Cc2c[nH]c3ccccc23)NC(=O)[C@H](CC(=O)O)NC(=O)[C@H](Cc2ccc(O)cc2)NC(=O)[C@H](Cc2ccccc2)NC(=O)CSC[C@@H](C(=O)N[C@@H](C)C(N)=O)NC(=O)[C@H](CO)NC(=O)[C@H](C(C)C)NC(=O)[C@H](CC(C)C)NC(=O)[C@H](CC(N)=O)NC(=O)[C@@H](CC(C)C)NC(=O)[C@H](CN)NC1=O (stereo partly drawn) [Compound 1216] ({CH2CO}-FYD[ξW]L[Bip]I[Dap][dL]NLVSCA-NH2; thioether N-14) , the value recorded as its IC50 is 22.2
